Values from ChEMBL document CHEMBL4190255

experiment: Selectivity index, ratio of IC50 for human BJ cells to IC50 for human MIAPaCa2 cells; format: toxicity; settings: BJ cells versus MIAPaCa2 cells, read-out: Ratio IC50
For each entry below, report its selectivity ratio value.
One number for each entry.

| structure | selectivity ratio |
| --- | --- |
| CNC(=O)N[C@]1(C)CC[C@]2(C)CC[C@]3(C)C4=CC=C5C(=CC(=O)C(O)=C5C)[C@]4(C)CC[C@@]3(C)[C@@H]2C1 | 4.72 |
| CC1=C(O)C(=O)C=C2C1=CC=C1[C@@]2(C)CC[C@@]2(C)[C@@H]3C[C@](C)(C(=O)O)CC[C@]3(C)CC[C@]12C | 5.97 |
| CC1=C(O)C(=O)C=C2C1=CC=C1[C@@]2(C)CC[C@@]2(C)[C@@H]3C[C@](C)(NC(=O)NCCc4cccc(Cl)c4)CC[C@]3(C)CC[C@]12C | 9.31 |

Now for the compound whose selectivity ratio we want.
**Query** Look up selectivity ratio for this compound: `CCCCNC(=O)N[C@]1(C)CC[C@]2(C)CC[C@]3(C)C4=CC=C5C(=CC(=O)C(O)=C5C)[C@]4(C)CC[C@@]3(C)[C@@H]2C1`
**Result** 6.94

----------
For each record, write down the corresponding selectivity ratio.
assay: Selectivity index, ratio of IC50 for human BJ cells to IC50 for human A549 cells; assay type: toxicity; settings: BJ cells versus A549 cells, read-out: Ratio IC50
Answers are plain numbers.

Worked examples follow.
| compound | selectivity ratio |
| --- | --- |
| CC1=C(O)C(=O)C=C2C1=CC=C1[C@@]2(C)CC[C@@]2(C)[C@@H]3C[C@](C)(C(=O)O)CC[C@]3(C)CC[C@]12C [CELASTROL] | 1.75 |
| CC1=C(O)C(=O)C=C2C1=CC=C1[C@@]2(C)CC[C@@]2(C)[C@@H]3C[C@](C)(NC(=O)NCCc4cccc(Cl)c4)CC[C@]3(C)CC[C@]12C | 2.59 |
| CNC(=O)N[C@]1(C)CC[C@]2(C)CC[C@]3(C)C4=CC=C5C(=CC(=O)C(O)=C5C)[C@]4(C)CC[C@@]3(C)[C@@H]2C1 | 1.36 |

**Query** Look at this compound and give its reported selectivity ratio. `CCCCNC(=O)N[C@]1(C)CC[C@]2(C)CC[C@]3(C)C4=CC=C5C(=CC(=O)C(O)=C5C)[C@]4(C)CC[C@@]3(C)[C@@H]2C1`
**Result** 1.48

----------
Consider the following molecules; for each one, report its selectivity ratio.
experiment: Selectivity index, ratio of IC50 for human BJ cells to IC50 for human SKOV3 cells; assay type: toxicity; conditions: BJ cells versus SKOV3 cells, read-out: Ratio IC50
Answers are plain numbers.

| molecule | selectivity ratio |
| --- | --- |
| CC1=C(O)C(=O)C=C2C1=CC=C1[C@@]2(C)CC[C@@]2(C)[C@@H]3C[C@](C)(C(=O)O)CC[C@]3(C)CC[C@]12C [CELASTROL] | 2.34 |

Could you now consider this next molecule?
**Query** Returns the measured selectivity ratio for the input molecule. Input: `CC1=C(O)C(=O)C=C2C1=CC=C1[C@@]2(C)CC[C@@]2(C)[C@@H]3C[C@](C)(NC(=O)NCCc4cccc(Cl)c4)CC[C@]3(C)CC[C@]12C`
**Result** 5.81
